# Tested on: STAPHYLOCOCCUS AUREUS CMX 553
# assayComment: In vitro antibacterial activity, MIC, BHI agar dilution
# Format: cell-based
# experimentalSetup: S. aureus CMX 553, unit assumed
endpointLabel: MIC (µg/mL)
Please give a number only; it is taken to be in µg/mL.

Answered examples (4):
CCC1OC(=O)C(C)C(=O)C(C)C(OC2OC(C)CC(N(C)C)C2O)C(C)(OC)CC(C)C2=NCC(CSc3ccccc3)(CN(C)C)N3C(=O)OC1(C)C3C2C (stereo not drawn): 3.1
CC[C@H]1OC(=O)[C@H](C)C(=O)[C@H](C)[C@@H](O[C@@H]2O[C@H](C)C[C@H](N(C)C)[C@H]2O)[C@](C)(OC)C[C@@H](C)C2=NC3CCCCC3N3C(=O)O[C@@]1(C)[C@H]3[C@H]2C (stereo partly drawn): 0.2
CC[C@H]1OC(=O)[C@H](C)C(=O)[C@H](C)[C@@H](O[C@@H]2O[C@H](C)C[C@H](N(C)C)[C@H]2O)[C@](C)(OC)C[C@@H](C)C2=N[C@@H]3CN(Cc4ccncc4)C[C@@H]3N3C(=O)O[C@@]1(C)[C@H]3[C@H]2C: 0.78
CC[C@H]1OC(=O)[C@H](C)C(=O)[C@H](C)[C@@H](O[C@@H]2O[C@H](C)C[C@H](N(C)C)[C@H]2O)[C@](C)(OC)C[C@@H](C)C2=N[C@@H]3CN(Cc4ccc(Cl)cc4)C[C@@H]3N3C(=O)O[C@@]1(C)[C@H]3[C@H]2C: 0.78

Okay, next one:
get_value(item= CC[C@H]1OC(=O)[C@H](C)C(=O)[C@H](C)[C@@H](O[C@@H]2O[C@H](C)C[C@H](N(C)C)[C@H]2O)[C@](C)(OC)C[C@@H](C)C2=N[C@@H](Cc3ccccc3)CN3C(=O)O[C@@]1(C)[C@H]3[C@H]2C , readout=MIC) returns 0.78

----------
# Tested on: ESCHERICHIA COLI H560
# assayComment: In vitro antibacterial activity, MIC, BHI agar dilution
# Format: cell-based
# experimentalSetup: E. coli H560, unit assumed
endpointLabel: MIC (µg/mL)
Please give a number only; it is taken to be in µg/mL.

Answered examples (2):
CC[C@H]1OC(=O)[C@H](C)C[C@H](C)[C@@H](O[C@@H]2O[C@H](C)C[C@H](N(C)C)[C@H]2O)[C@](C)(OC)C[C@@H](C)C2=NCCN3C(=O)O[C@@]1(C)[C@H]3[C@H]2C: 50
CC[C@H]1OC(=O)[C@H](C)C(=O)[C@H](C)[C@@H](O[C@@H]2O[C@H](C)C[C@H](N(C)C)[C@H]2O)[C@](C)(OC)C[C@@H](C)C2=NC[C@H](Cc3ccc(I)cc3)N3C(=O)O[C@@]1(C)[C@H]3[C@H]2C: 50

Okay, next one:
get_value(item= CC[C@H]1OC(=O)[C@H](C)C(=O)[C@H](C)[C@@H](O[C@@H]2O[C@H](C)C[C@H](N(C)C)[C@H]2O)[C@](C)(OC)C[C@@H](C)C2=NCC(COC(=O)c3ccccc3)N3C(=O)O[C@@]1(C)[C@H]3[C@H]2C (stereo partly shown) , readout=MIC) returns 25

----------
# Tested on: KLEBSIELLA PNEUMONIAE ATCC 8045
# assayComment: In vitro antibacterial activity, MIC, BHI agar dilution
# Format: cell-based
# experimentalSetup: K. pneumoniae ATCC 8045, unit assumed
endpointLabel: MIC (µg/mL)
Please give a number only; it is taken to be in µg/mL.

CC[C@H]1OC(=O)[C@H](C)C(=O)[C@H](C)[C@@H](O[C@@H]2O[C@H](C)C[C@H](N(C)C)[C@H]2O)[C@](C)(OC)C[C@@H](C)C2=NC[C@@H](COCc3ccccc3)N3C(=O)O[C@@]1(C)[C@H]3[C@H]2C [Example 37]: 50
CC[C@H]1OC(=O)[C@H](C)C(=O)[C@H](C)[C@@H](O[C@@H]2O[C@H](C)C[C@H](N(C)C)[C@H]2O)[C@](C)(OC)C[C@@H](C)C2=NC3CN(CCc4ccc(N)cc4)CC3N3C(=O)O[C@@]1(C)[C@H]3[C@H]2C (stereo partly shown) [Example 121]: 100

Okay, next one:
get_value(item= CC[C@H]1OC(=O)[C@H](C)C(=O)[C@H](C)[C@@H](O[C@@H]2O[C@H](C)C[C@H](N(C)C)[C@H]2O)[C@](C)(OC)C[C@@H](C)C2=NC[C@H](Cc3ccc(I)cc3)N3C(=O)O[C@@]1(C)[C@H]3[C@H]2C [Example 70] , readout=MIC) returns 100

----------
# Test system: ESCHERICHIA COLI H560
# assayComment: In vitro antibacterial activity, MIC, BHI agar dilution
# Format: cell-based
# experimentalSetup: E. coli H560, unit assumed
endpointLabel: MIC (µg/mL)
Please give a number only; it is taken to be in µg/mL.

CC[C@H]1OC(=O)[C@H](C)C(=O)[C@H](C)[C@@H](O[C@@H]2O[C@H](C)C[C@H](N(C)C)[C@H]2O)[C@](C)(OC)C[C@@H](C)C2=N[C@H](COCc3cccc(Br)c3)CN3C(=O)O[C@@]1(C)[C@H]3[C@H]2C: 50

Okay, next one:
get_value(item= CC[C@H]1OC(=O)[C@H](C)C(=O)[C@H](C)[C@@H](O[C@@H]2O[C@H](C)C[C@H](N(C)C)[C@H]2O)[C@](C)(OC)C[C@@H](C)C2=NCC(CNCc3ccccc3)N3C(=O)O[C@@]1(C)[C@H]3[C@H]2C (some centres unmarked) , readout=MIC) returns 12.5

----------
# System: STAPHYLOCOCCUS EPIDERMIDIS 3519
# Assay type: cell-based
# experimentalSetup: S. epidermidis 3519; BHI agar; unit assumed
endpointLabel: MIC (µg/mL)
Please give a number only; it is taken to be in µg/mL.

Answered examples (2):
CC[C@H]1OC(=O)[C@H](C)C(=O)[C@H](C)[C@@H](O[C@@H]2O[C@H](C)C[C@H](N(C)C)[C@H]2O)[C@](C)(OC)C[C@@H](C)C2=N[C@H](COCc3ccc(Cl)cc3)CN3C(=O)O[C@@]1(C)[C@H]3[C@H]2C: 0.39
CC[C@H]1OC(=O)[C@H](C)C(=O)[C@H](C)[C@@H](O[C@@H]2O[C@H](C)C[C@H](N(C)C)[C@H]2O)[C@](C)(OC)C[C@@H](C)C2=NC3CN(C)CC3N3C(=O)O[C@@]1(C)[C@H]3[C@H]2C (stereo partly shown): 1.56

get_value(item= CCC1OC(=O)C(C)C(=O)C(C)C(OC2OC(C)CC(N(C)C)C2O)C(C)(OC)CC(C)C2=NC(COCSC)CN3C(=O)OC1(C)C3C2C (stereo not shown) , readout=MIC) returns 0.39

get_value(item= CC[C@H]1OC(=O)[C@H](C)C(=O)[C@H](C)[C@@H](O[C@@H]2O[C@H](C)C[C@H](N(C)C)[C@H]2O)[C@](C)(OC)C[C@@H](C)C2=N[C@@H]3CN(Cc4ccncc4)C[C@@H]3N3C(=O)O[C@@]1(C)[C@H]3[C@H]2C , readout=MIC) returns 0.78

----------
# System: STREPTOCOCCUS BOVIS A-5169
# assayComment: In vitro antibacterial activity, MIC, BHI agar dilution
# Format: cell-based
# experimentalSetup: S. bovis A-5169, unit assumed
# Lookup of reported MIC keyed by entry
Please give a number only; it is taken to be in µg/mL.

CC[C@H]1OC(=O)[C@H](C)C(=O)[C@H](C)[C@@H](O[C@@H]2O[C@H](C)C[C@H](N(C)C)[C@H]2O)[C@](C)(OC)C[C@@H](C)C2=N[C@H](COCc3cc(C)c4ccccc4n3)CN3C(=O)O[C@@]1(C)[C@H]3[C@H]2C: 0.02
CC[C@H]1OC(=O)[C@H](C)C(=O)[C@H](C)[C@@H](O[C@@H]2O[C@H](C)C[C@H](N(C)C)[C@H]2O)[C@](C)(OC)C[C@@H](C)C2=N[C@H](CO)CN3C(=O)O[C@@]1(C)[C@H]3[C@H]2C: 0.05
CC[C@H]1OC(=O)[C@H](C)C(=O)[C@H](C)[C@@H](O[C@@H]2O[C@H](C)C[C@H](N(C)C)[C@H]2O)[C@](C)(OC)C[C@@H](C)C2=N[C@H](COCc3ccccc3Br)CN3C(=O)O[C@@]1(C)[C@H]3[C@H]2C: 0.01
CC[C@H]1OC(=O)[C@H](C)C(=O)[C@H](C)[C@@H](O[C@@H]2O[C@H](C)C[C@H](N(C)C)[C@H]2O)[C@](C)(OC)C[C@@H](C)C2=NC[C@@H](Cc3ccccc3)N3C(=O)O[C@@]1(C)[C@H]3[C@H]2C: 0.01
CC[C@H]1OC(=O)[C@H](C)C(=O)[C@H](C)[C@@H](O[C@@H]2O[C@H](C)C[C@H](N(C)C)[C@H]2O)[C@](C)(OC)C[C@@H](C)C2=NC3CN(C(C)=O)CC3N3C(=O)O[C@@]1(C)[C@H]3[C@H]2C (stereo partly shown): 0.2
CC[C@H]1OC(=O)[C@H](C)C(=O)[C@H](C)[C@@H](O[C@@H]2O[C@H](C)C[C@H](N(C)C)[C@H]2O)[C@](C)(OC)C[C@@H](C)C2=NC[C@H](CO)N3C(=O)O[C@@]1(C)[C@H]3[C@H]2C: 0.05
CC[C@H]1OC(=O)[C@H](C)C(=O)[C@H](C)[C@@H](O[C@@H]2O[C@H](C)C[C@H](N(C)C)[C@H]2O)[C@](C)(OC)C[C@@H](C)C2=N[C@@H]3CN(Cc4ccc(Cl)cc4)C[C@@H]3N3C(=O)O[C@@]1(C)[C@H]3[C@H]2C: 0.05
CC[C@H]1OC(=O)[C@H](C)C(=O)[C@H](C)[C@@H](O[C@@H]2O[C@H](C)C[C@H](N(C)C)[C@H]2O)[C@](C)(OC)C[C@@H](C)C2=N[C@H](COCc3ccc(Cl)cc3)CN3C(=O)O[C@@]1(C)[C@H]3[C@H]2C: 0.01

get_value(item= CC[C@H]1OC(=O)[C@H](C)C(=O)[C@H](C)[C@@H](O[C@@H]2O[C@H](C)C[C@H](N(C)C)[C@H]2O)[C@](C)(OC)C[C@@H](C)C2=NC3CNCC3N3C(=O)O[C@@]1(C)[C@H]3[C@H]2C (stereo partly shown) , readout=MIC) returns 0.05

get_value(item= CC[C@H]1OC(=O)[C@H](C)C(=O)[C@H](C)[C@@H](O[C@@H]2O[C@H](C)C[C@H](N(C)C)[C@H]2O)[C@](C)(OC)C[C@@H](C)C2=NC[C@H](Cc3ccccc3)N3C(=O)O[C@@]1(C)[C@H]3[C@H]2C , readout=MIC) returns 0.01

get_value(item= CC[C@H]1OC(=O)[C@H](C)C(=O)[C@H](C)[C@@H](O[C@@H]2O[C@H](C)C[C@H](N(C)C)[C@H]2O)[C@](C)(OC)C[C@@H](C)C2=NC[C@H](Cc3ccc(OCc4ccccc4)cc3)N3C(=O)O[C@@]1(C)[C@H]3[C@H]2C , readout=MIC) returns 0.1

Just for reference, patent US6274715A is where these values come from.
